- Test system: rice (GA-tolerant)
- Assay overview: Greenhouse trial, crop plant compatibility in rice (GA-tolerant)
- Format: in vivo
- Condition set: in vivo
Parameter Damage to crop plants (%) rice (GA-tolerant) (≦15-20% acceptable): see the listing below.
Recorded metric: Damage to crop plants (%) rice (GA-tolerant) (≦15-20% acceptable)

- Molecule: "CC(C)Oc1cc(-n2nc(C(C)(C)C)oc2=O)c(Cl)cc1Cl [C50, oxadiazon]"
  Result: 0
- Molecule: "COC(=O)c1nc(-c2ccc(Cl)c(OC)c2F)cc(N)c1Cl [B1.1]"
  Result: 0
- Molecule: "COC(=O)c1ccccc1S(=O)(=O)NC(=O)Nc1nc(C)nc(OC)n1 [C43, metsulfuron-methyl]"
  Result: 15
- Molecule: "CCOc1ccccc1OS(=O)(=O)NC(=O)Nc1nc(OC)cc(OC)n1 [C24, ethoxysulfuron]"
  Result: 0
